- Read-out: matrix metalloproteinase-10 (MMP10), MMP10 (gene 4319)
- Protocol Summary: LTEA_HepaRG_MMP10: Life Technologies and Expression Analysis (LTEA) Assay for matrix metalloproteinase-10 (MMP10) using HepaRG (AID 2283517)
- Measurement Context: mRNA level, 48 h; actives raise or lower the signal
Active and inactive are the calls of the source. How the source made its calls: active means hit-call score of the fitted dose curve at least 0.9, where 1 is the maximum; inactive means score below 0.9.
Outcome codes: T = active, F = inactive

- Compound: "CCCCOC(=O)CCCCCCCCC(=O)OCCCC"
  Group Label: "F"
- Compound: "Cc1cccc(Nc2cc(Cl)nc(SCC(=O)O)n2)c1C"
  Group Label: "F"
- Compound: "CNCc1cc(F)ccc1Oc1ccc(Cl)c(Cl)c1"
  Group Label: "T"
- Compound: "COc1ccc(C)cc1N"
  Group Label: "F"
- Compound: "NCC1(Cc2noc(=O)[nH]2)CCCCC1"
  Group Label: "F"
- Compound: "O=c1c(O)c(-c2ccc(O)c(O)c2)oc2cc(O)cc(O)c12"
  Group Label: "F"
- Compound: "CCCCCCCCCCCCCCCC"
  Group Label: "F"
- Compound: "Cc1ccccc1Cl"
  Group Label: "F"
- Compound: "Nc1ccccc1N"
  Group Label: "F"
- Compound: "O=C(O)Cc1ccccc1Nc1c(Cl)cccc1Cl"
  Group Label: "F"
- Compound: "CC(CO)OC(C)CO (stereo unspecified) (tested in a mixture with another compound)"
  Group Label: "F"

* * *

- Read-out: Monocyte Chemoattractant Protein-1 (MCP1), CCL2 (gene 6347)
- Protocol Summary: BSK_3C_MCP1: BioMAP Diversity Plus: 3C Assay for Monocyte Chemoattractant Protein-1 (MCP1) Biomarker Activity (AID 2283017)
- Measurement Context: primary human endothelial cells (HUVEC); actives raise or lower the signal
Activity calls are given as the source filed them. Rule for the calls: active = hit-call score of the fitted dose curve at least 0.9, where 1 is the maximum; inactive = score below 0.9.
Outcome codes: 1 (yes) = active, 0 (no) = inactive

- Compound Structure: "Nc1ccccc1N"
  Group Label: "0 (no)"
- Compound Structure: "CNCc1cc(F)ccc1Oc1ccc(Cl)c(Cl)c1"
  Group Label: "1 (yes)"
- Compound Structure: "COc1ccc(S(=O)(=O)N2C(=O)[C@@](c3ccccc3OC)(N3C[C@H](O)C[C@H]3C(=O)N(C)C)c3cc(Cl)ccc32)c(OC)c1"
  Group Label: "1 (yes)"
- Compound Structure: "CCCCCC(=O)O"
  Group Label: "0 (no)"
- Compound Structure: "C=CCc1ccc(O)c(OC)c1"
  Group Label: "0 (no)"
- Compound Structure: "CC(C)c1ccc(C(=O)N=C(N)N)cc1S(C)(=O)=O"
  Group Label: "0 (no)"
- Compound Structure: "NCC1(Cc2noc(=O)[nH]2)CCCCC1"
  Group Label: "0 (no)"
- Compound Structure: "Cc1cc(=O)[nH]c(=S)[nH]1"
  Group Label: "0 (no)"
- Compound Structure: "NCCO"
  Group Label: "0 (no)"
- Compound Structure: "COc1cc(-c2nc(NC(=O)c3cc4cc(C)cc(C)c4n3CC(=O)O)sc2CCC2CCCCC2)c(OC)cc1Cl"
  Group Label: "1 (yes)"

* * *

- Read-out: Monokine induced gamma interferon (MIG), CXCL9 (gene 4283)
- Protocol Summary: BSK_3C_MIG: BioMAP Diversity Plus: 3C Assay for Monokine induced gamma interferon (MIG) Biomarker Activity (AID 2283021)
- Measurement Context: primary human endothelial cells (HUVEC); actives raise or lower the signal
The source made the active and inactive calls. How the source made its calls: active means hit-call score of the fitted dose curve at least 0.9, where 1 is the maximum; inactive means score below 0.9.
Outcome codes: active, inactive

- Compound: "NC(=O)Cn1c(=O)cc(CCN2CCN(c3nccc4sccc34)CC2)c2ccc(F)cc21"
  Group Label: "inactive"
- Compound: "CC(CO)OC(C)CO (stereo not drawn) (tested in a mixture with another compound)"
  Group Label: "inactive"
- Compound: "Cc1cccc([N+](=O)[O-])c1C"
  Group Label: "inactive"
- Compound: "CCCCCCCCCCO"
  Group Label: "inactive"
- Compound: "CCCCCC(=O)O"
  Group Label: "inactive"
- Compound: "CCCCC(CC)COC(=O)CC(C(=O)OCC(CC)CCCC)S(=O)(=O)O (stereo not drawn)"
  Group Label: "active"
- Compound: "C=CCOC(=O)c1ccccc1C(=O)OCC=C"
  Group Label: "inactive"
- Compound: "FC(F)(F)C(F)(F)C(F)(F)C(F)(F)C(F)(F)C(F)(F)CCI"
  Group Label: "inactive"

* * *

- Protocol Summary: BSK_3C_TissueFactor: BioMAP Diversity Plus: 3C Assay for Tissue Factor Biomarker Activity (AID 2282997)
- Measurement Context: BioMAP 3C HUVEC, tissue factor biomarker readout; actives raise or lower the signal
Active and inactive are the calls of the source. Rule for the calls: active = hit-call score of the fitted dose curve at least 0.9, where 1 is the maximum; inactive = score below 0.9.
Labels: Yes for active, No for inactive

- Compound: "CCCCCCCCCCCCCCCC"
  Group Label: "No"
- Compound: "O=c1c(O)c(-c2ccc(O)c(O)c2)oc2cc(O)cc(O)c12"
  Group Label: "Yes"
- Compound: "CCCCC(CC)COC(=O)CC(C(=O)OCC(CC)CCCC)S(=O)(=O)O (stereo not drawn)"
  Group Label: "Yes"
- Compound: "Cc1cc(=O)[nH]c(=S)[nH]1"
  Group Label: "No"
- Compound: "O=C(O)CCCCC(=O)O"
  Group Label: "No"
- Compound: "CCCCCCCCCCC"
  Group Label: "No"
- Compound: "COc1ccc(S(=O)(=O)N2C(=O)[C@@](c3ccccc3OC)(N3C[C@H](O)C[C@H]3C(=O)N(C)C)c3cc(Cl)ccc32)c(OC)c1"
  Group Label: "No"
- Compound: "CCCCCCC(=O)OCC"
  Group Label: "No"
- Compound: "Nc1ccc2c(c1)C(=O)c1ccccc1C2=O"
  Group Label: "No"
- Compound: "CCCCN(CCCC)CCCC"
  Group Label: "No"
- Compound: "Cc1cccc([N+](=O)[O-])c1C"
  Group Label: "No"
- Compound: "Nc1nc(N)c2nc(CNc3ccc(C(=O)N[C@@H](CCC(=O)O)C(=O)O)cc3)cnc2n1"
  Group Label: "No"
- Compound: "O=[N+]([O-])C(CO)(CO)CO"
  Group Label: "No"
- Compound: "CC1=C(/C=C/C(C)=C/C=C/C(C)=C/CO)C(C)(C)CCC1"
  Group Label: "No"
- Compound: "CC(C)c1ccc(C(=O)N=C(N)N)cc1S(C)(=O)=O"
  Group Label: "No"
- Compound: "NC(=O)Cn1c(=O)cc(CCN2CCN(c3nccc4sccc34)CC2)c2ccc(F)cc21"
  Group Label: "No"
- Compound: "Cc1nc(C)nc(N2C[C@@H](C)N(c3ccnc([C@@H](C)O)n3)[C@@H](C)C2)n1"
  Group Label: "No"
- Compound: "CCCCCCCCCCO"
  Group Label: "No"
- Compound: "CN1CCCC1=O"
  Group Label: "No"
- Compound: "C[C@]12C=CC(=O)C=C1CC[C@@H]1[C@@H]2C(=O)C[C@@]2(C)[C@H]1CC[C@]2(O)C(=O)CO"
  Group Label: "No"
- Compound: "CNCc1cc(F)ccc1Oc1ccc(Cl)c(Cl)c1"
  Group Label: "Yes"
- Compound: "Oc1ccc2ccccc2c1N=Nc1ccccc1"
  Group Label: "Yes"
- Compound: "CCNc1cccc(C)c1"
  Group Label: "No"
- Compound: "Oc1ccc2c(c1)OC[C@@H](N1CCC(O)(c3ccc(F)cc3)CC1)[C@H]2O"
  Group Label: "No"
- Compound: "Cc1ccc(C(C)C)c(O)c1"
  Group Label: "Yes"
- Compound: "COc1cc(-c2nc(NC(=O)c3cc4cc(C)cc(C)c4n3CC(=O)O)sc2CCC2CCCCC2)c(OC)cc1Cl"
  Group Label: "Yes"
- Compound: "Cc1oc(-c2ccccc2)nc1CCOc1cccc2c1ccn2CCC(=O)O"
  Group Label: "No"
- Compound: "CCOC(=O)CCC(=O)OCC"
  Group Label: "No"
